Molecular target: H198P DegS (Escherichia coli, UniProt P0AEE3, H198P)
Sequence (P0AEE3 27-355 H198P limits assumed): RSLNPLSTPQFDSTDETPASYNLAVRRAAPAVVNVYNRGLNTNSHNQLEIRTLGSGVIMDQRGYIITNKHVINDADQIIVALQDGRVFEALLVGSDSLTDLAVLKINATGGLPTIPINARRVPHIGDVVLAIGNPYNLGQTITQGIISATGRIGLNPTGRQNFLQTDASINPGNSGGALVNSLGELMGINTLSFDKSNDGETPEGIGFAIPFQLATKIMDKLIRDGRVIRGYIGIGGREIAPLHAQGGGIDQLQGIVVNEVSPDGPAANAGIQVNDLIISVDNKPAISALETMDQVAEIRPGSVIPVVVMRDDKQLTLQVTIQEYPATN
Experiment: biochemical
Where a SMILES comes first, the peptide text is derived from it.

{"columns": ["MOLECULE", "EC50 / µM"],
 "data": [
  ["NC(=O)CC[C@H](NC(=O)[C@@H](N)Cc1ccc(O)cc1)C(=O)N[C@@H](Cc1ccccc1)C(=O)O [YQF] (H-Tyr-Gln-Phe-OH)", 29]
]}

Data provenance: paper PMC2764547
